# experimentalTarget: T1, soluble KIR3DL1*002-Fc (human, UniProt P43629 22-338)
# T1 construct: also called KIR3DL1 allele 002; Allele 002; not shown: Fc domain
# T1 sequence (P43629 other isoform, or with tags, fused parts or gaps): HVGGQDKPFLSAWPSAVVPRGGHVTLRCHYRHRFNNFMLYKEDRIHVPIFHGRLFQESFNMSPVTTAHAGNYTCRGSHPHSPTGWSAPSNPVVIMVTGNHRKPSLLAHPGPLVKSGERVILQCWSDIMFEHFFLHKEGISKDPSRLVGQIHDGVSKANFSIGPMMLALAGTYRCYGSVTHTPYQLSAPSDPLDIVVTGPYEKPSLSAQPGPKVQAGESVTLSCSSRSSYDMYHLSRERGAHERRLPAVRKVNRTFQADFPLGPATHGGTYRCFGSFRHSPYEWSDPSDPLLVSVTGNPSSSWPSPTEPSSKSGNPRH
# testName: SPR (BIACORE T-100), kinetics
measuredEndpoint: kon (M⁻¹ s⁻¹)
Field format: number, assumed M⁻¹ s⁻¹, no unit text.

// below: answered binders
INSERT INTO results (binder, unitslabel, measvalue) VALUES
  ('ET160-72 (antibody, human IgG1, V domains shown, Tested as human IgG1 (hIgG1), lambda light chain) VH: QVQLVQSGGGVVRSGGSLRLTCAASGFTFGDYGMSWVRQAPGKGLEWVSGINWNGGGTGYADSVKGRFTISRDNAKDSLYLQMNSLRAEDTALYYCARVWGCGSTTCYEGADDAFDIWGQGTMVTVSS VL: LPVLTQPPSISGAPRQRVTISCSGARSNIGNNAVNWYQQVPGEAPKLLIFYDDQQPSGISGRFSGSKSGTSASLAISGLQSEDEADYYCAAWDDSLNGWVFGGGTKLTVLG', 'M⁻¹ s⁻¹', 50500),
  ('ET160-74 (antibody, human IgG1, V domains shown, Tested as human IgG1 (hIgG1), lambda light chain) VH: QVQLVQSGAEVKKPGSSVKVSCKASGGTFSSYAISWVRQAPGQGLEWMGWMNPNSGNTGYAQKFQGRVTMTRNTSISTAYMELSSLRSEDTAVYYCARYSFHLDGWGQGTLVTVSS VL: QSVLTQPPSVSAAPGQKVTISCSGSSSNVGNNYVSWYQQVPGTAPKLLIYDNNRRPSGIPDRFSGSKSGTSATLGITGLQTGDEADYYCGTWDNSLRVELFGGGTKVTVLG', 'M⁻¹ s⁻¹', 103000),
  ('ET160-61 (antibody, human IgG1, V domains shown, Tested as human IgG1 (hIgG1), lambda light chain) VH: QVQLVESGGGLVQPGRSLRLSCAASGFTFDDYAMHWVRQAPGKGLEWVSGISWNSGSIGYADSVKGRFTISRDNAKNSLYLQMNSLRAEDTAVYYCASSLRYFEWPIDYWGQGTLVTVSS VL: NFMLTQPLSVSESPGKTVTISCTANGGSLASKYVQWFQQRPGSSPTTVIYDDNLRPSGVPDRFSGSIDTSSNSAALTISGLKTEDEADYYCQSYDNSSVVFGGGTKLTVLG', 'M⁻¹ s⁻¹', 84000);

Identify measured kon corresponding to ET160-77 (antibody, human IgG1, V domains shown, Tested as human IgG1 (hIgG1), lambda light chain) VH: EVQLVETGGGLVKPGGSLRLSCAASGFTFSDYYMSWIRQAPGKGLEWVSYISSSSSYTNYADSVKGRFTISRDNAKNSLYLQMNSLRAEDTAVYYCAREGIAAADAFDIWGQGTMVTVSS VL: SYELTQPPSVSVAPGQAATITCAGDNIESKSVNWYQQKPGQAPVLVVYDDTVRPSGIPERFSGSNSGNPATLTISRSEAGDEADYYCQVWDNRRDHVVFGGGTKVTVLG
50000
